molecular target: T1, human LTBP1-proTGFβ1 complex (human, UniProt Q14766 347-1721; P01137 30-390); test: Octet BLI, IgG captured
T1 construct: Large latent complex: one presenting molecule disulfide-linked to a proTGFβ1 dimer; also called Hu LTBP1-proTGFβ1; huLTBP1 proTGFβ1
T1 sequence (Q14766 347-1721 limits assumed, chain 1 of 2): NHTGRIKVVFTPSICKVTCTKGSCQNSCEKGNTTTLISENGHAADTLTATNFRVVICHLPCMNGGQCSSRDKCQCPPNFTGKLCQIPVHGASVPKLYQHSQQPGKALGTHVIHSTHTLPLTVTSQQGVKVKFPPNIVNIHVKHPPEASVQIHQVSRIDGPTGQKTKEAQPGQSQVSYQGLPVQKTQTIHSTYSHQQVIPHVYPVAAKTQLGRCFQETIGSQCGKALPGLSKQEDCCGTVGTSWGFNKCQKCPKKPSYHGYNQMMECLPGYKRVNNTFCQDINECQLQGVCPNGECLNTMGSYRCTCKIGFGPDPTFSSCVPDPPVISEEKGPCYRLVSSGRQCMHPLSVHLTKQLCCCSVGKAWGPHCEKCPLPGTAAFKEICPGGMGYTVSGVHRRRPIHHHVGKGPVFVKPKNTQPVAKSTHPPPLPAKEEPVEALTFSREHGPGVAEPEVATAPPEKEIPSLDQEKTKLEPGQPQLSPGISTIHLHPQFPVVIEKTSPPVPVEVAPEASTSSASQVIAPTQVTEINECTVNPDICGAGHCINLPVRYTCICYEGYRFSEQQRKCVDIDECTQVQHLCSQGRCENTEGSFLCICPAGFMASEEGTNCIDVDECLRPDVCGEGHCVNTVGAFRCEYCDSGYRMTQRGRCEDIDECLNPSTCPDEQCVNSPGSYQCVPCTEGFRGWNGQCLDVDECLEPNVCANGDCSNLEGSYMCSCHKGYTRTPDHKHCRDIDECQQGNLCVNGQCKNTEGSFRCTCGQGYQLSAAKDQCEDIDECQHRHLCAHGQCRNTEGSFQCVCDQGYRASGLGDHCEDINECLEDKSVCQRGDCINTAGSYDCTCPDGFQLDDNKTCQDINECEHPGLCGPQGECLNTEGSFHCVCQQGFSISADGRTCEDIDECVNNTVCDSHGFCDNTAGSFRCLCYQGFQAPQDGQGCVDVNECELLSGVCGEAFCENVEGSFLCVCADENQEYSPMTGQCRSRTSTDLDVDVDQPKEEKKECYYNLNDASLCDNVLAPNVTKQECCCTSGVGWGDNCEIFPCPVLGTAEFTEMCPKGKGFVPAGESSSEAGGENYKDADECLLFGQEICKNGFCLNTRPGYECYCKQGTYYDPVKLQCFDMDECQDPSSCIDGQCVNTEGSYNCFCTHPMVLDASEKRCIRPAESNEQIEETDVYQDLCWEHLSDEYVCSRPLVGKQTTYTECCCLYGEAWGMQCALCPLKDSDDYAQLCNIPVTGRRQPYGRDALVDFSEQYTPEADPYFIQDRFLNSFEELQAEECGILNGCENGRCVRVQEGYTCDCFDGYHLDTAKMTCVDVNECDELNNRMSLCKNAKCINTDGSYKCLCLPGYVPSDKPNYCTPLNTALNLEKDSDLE
T1 sequence (P01137 30-390 limits assumed, chain 2 of 2): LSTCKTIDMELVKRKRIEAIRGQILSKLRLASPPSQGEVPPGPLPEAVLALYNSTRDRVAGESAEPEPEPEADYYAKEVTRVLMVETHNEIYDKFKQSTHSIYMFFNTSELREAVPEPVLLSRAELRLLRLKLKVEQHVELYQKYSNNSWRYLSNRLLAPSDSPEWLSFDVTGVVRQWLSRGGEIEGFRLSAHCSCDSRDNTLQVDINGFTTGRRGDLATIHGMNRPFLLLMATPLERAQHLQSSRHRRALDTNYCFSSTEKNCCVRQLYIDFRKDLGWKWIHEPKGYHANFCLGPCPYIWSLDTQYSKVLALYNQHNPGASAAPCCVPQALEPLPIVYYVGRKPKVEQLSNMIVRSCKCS
measured_attribute: koff (s⁻¹)
State just the number; it will be interpreted in s⁻¹.

Return reported koff. Input binder: SR-AB62 (antibody, IgG1, V domains shown, Cycle 3, lineage SR-AB24) VH: QLQLQESGPGLAKPSETLSLTCTVSGGSIRSSSYYWGWIRQPPGKGLEWIGSISYSATTYYNPSLKSRVTISVDTSKNQFSLKLSSVTAADTAVYYCASDPSYDSAAGMDVWGQGTTVTVSS VL: DIQMTQSPSSLSASVGDRVTITCRASKVISSYLNWYQQKPGKAPKLLIYYASSLQSGVPSRFSGSGSGTDFTLTISSLQPEDFATYYCQQSNDWPFTFGGGTKVEIK 6.82e-05

Give the measured koff for SR-AB63 (antibody, IgG1, V domains shown, Cycle 3, lineage SR-AB26) VH: QLQLQESGPGLVKPSETLSLTCTVSGGSIRSSSYYWGWIRQPPGKGLEWIGSISYSATTYYNPSLKSRVTISVDTSKNQFSLKLSSVTAADTAVYYCAGDPSYDSIAGMQVWGQGTTVTVSS VL: DIQLTQSPSSLSASVGDRVTITCRASQSISSYLNWYQQKPGKAPKLLIYAASNLQSGVPSRFSGSGSGTDFTLTISSLQPEDFATYYCQQSFDWPLTFGGGTKVEIK 7.24e-05

Item SR-AB40 (antibody, IgG1, V domains shown, Cycle 3, lineage SR-AB23) VH: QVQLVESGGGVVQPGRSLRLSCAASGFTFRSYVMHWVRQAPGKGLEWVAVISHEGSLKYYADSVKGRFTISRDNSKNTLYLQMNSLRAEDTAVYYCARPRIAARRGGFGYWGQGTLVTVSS VL: NFMLTQPHSVSESPGKTVTISCTRSSGNIDNNYVQWYQQRPGSSPTTVIYEDNQRPSGVPDRFSGSIDSSSNSASLTISGLKTEDEADYYCQSYDYSNQGVVFGGGTKLTVL : provide koff 6e-05
